Where do the numbers come from? From the SangsterLogP compilation.

Form field: logP (one value per entry).

Worked cases, logP given:
CCCCNC(=O)NCCNCC(O)COc1ccc(-c2ncc(C)[nH]2)cc1 (centres undefined) : 1.24
COc1ccc(CCNC[C@H](O)COc2ccc(Cc3ncc(-c4cccs4)[nH]3)cc2)cc1OC : 2.28

INPUT: Fill in: logP of COc1ccc(CCNC[C@H](O)COc2ccc(-c3ncc(C(C)=O)[nH]3)cc2)cc1OC is ___
OUTPUT: 1.23

INPUT: Now consider CC(C)NC[C@H](O)COc1ccc(Cc2ncc(Br)[nH]2)cc1 .
OUTPUT: 1.35

====

Below is a list of entries, each paired with its recorded logP value.
Could you respond with only the numeric value?

Worked examples, 3 compounds total:
COc1ccc(CCNC[C@H](O)COc2ccc(-c3ncc(Br)[nH]3)cc2)cc1OC : 1.9
CCCNCC(O)COc1ccc(-c2ncc(-c3cccs3)[nH]2)cc1 (stereo unspecified) : 2.84
COc1ccc(CCNC[C@H](O)COc2ccc(-c3ncc(Cl)[nH]3)cc2)cc1OC : 2.4

INPUT: # get_value(readout='logP', item= COCc1cnc(-c2ccc(OC[C@@H](O)CNCCc3ccc(OC)c(OC)c3)cc2)[nH]1 )
OUTPUT: 1.71

INPUT: Now try COc1ccc(CCNC[C@H](O)COc2ccc(-c3nc(Cl)c(C)[nH]3)cc2)cc1OC .
OUTPUT: 2.35

INPUT: Same for COc1ccc(CCNC[C@H](O)COc2ccc(CCc3ncc(-c4cccs4)[nH]3)cc2)cc1OC
OUTPUT: 2.08

====

Here the recorded logP is given for each entry.

COc1ccc(CCNCC(O)COc2ccc(-c3nccn3C)cc2)cc1OC (centres undefined) : 2.08

INPUT: Which logP value is on record for CCOC(=O)c1cnc(-c2ccc(OC[C@@H](O)CNCCc3ccc(OC)c(OC)c3)cc2)[nH]1 ?
OUTPUT: 2.3

INPUT: Try this molecule too: COc1ccc(CCNC[C@H](O)COc2ccc(Cc3ncc(C(C)=O)[nH]3)cc2)cc1OC
OUTPUT: 0.87

INPUT: Moving on to the next molecule: COCc1nc(-c2ccc(OC[C@@H](O)CNCCc3ccc(OC)c(OC)c3)cc2)[nH]c1C
OUTPUT: 1.07
